assay_target: UniProt:P25105
Sequence (P25105 whole entry): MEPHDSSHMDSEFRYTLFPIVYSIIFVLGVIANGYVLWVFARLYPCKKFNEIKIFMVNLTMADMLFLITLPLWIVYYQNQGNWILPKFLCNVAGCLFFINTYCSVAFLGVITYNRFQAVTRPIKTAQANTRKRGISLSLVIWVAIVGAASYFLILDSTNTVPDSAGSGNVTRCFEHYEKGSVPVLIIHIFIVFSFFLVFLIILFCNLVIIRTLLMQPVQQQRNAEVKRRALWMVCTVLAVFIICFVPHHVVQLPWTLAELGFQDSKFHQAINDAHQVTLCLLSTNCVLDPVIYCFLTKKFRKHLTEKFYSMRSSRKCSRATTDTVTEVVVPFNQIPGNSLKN
assay: cellular HTRF IP1 assay: inhibition of PAFR activation by PAF C-16 ligand (endpoint assay)
Type: cell-based
Set-up: expressed in transfected cells; host or cells: HEK293
condition_parameters: HEK293 cells overexpressing human PAFR; PAF ligand 11 nM; Table 2
Documented IC50 across a set of compounds
measurement_kind: IC50 (nM)

>  <compound>
Cc1nnc2n1-c1sc3c(c1C(c1ccccc1Cl)=NC21CC1)C[C@H](C(=O)N[C@H]1CCN(c2ncccn2)C1)C3

>  <endpoint_unit>
nM

>  <numeric_readout>
6.5

$$$$
>  <compound>
Cc1nnc2n1-c1sc3c(c1C(c1cc(N)ccc1Cl)=NC21CC1)C[C@H](C(=O)N1CCOCC1)C3

>  <endpoint_unit>
nM

>  <numeric_readout>
25

$$$$
>  <compound>
Cc1ccccc1C1=NC2(CC2)c2nnc(C)n2-c2sc3c(c21)C[C@H](C(=O)N1CCOCC1)C3

>  <endpoint_unit>
nM

>  <numeric_readout>
8.4

$$$$
>  <compound>
Cc1nnc2n1-c1sc3c(c1C(c1ccccc1Cl)=NC21CC1)C[C@H](C(=O)NC1CCn2nccc2C1)C3 (stereo partly drawn)

>  <endpoint_unit>
nM

>  <numeric_readout>
10

$$$$
>  <compound>
Cc1nnc2n1-c1sc3c(c1C(c1ccccc1Cl)=NC21CC1)C[C@H](C(=O)NC1CCc2cc(F)ccc21)C3 (stereo partly drawn)

>  <endpoint_unit>
nM

>  <numeric_readout>
0.6

$$$$
>  <compound>
Cc1nnc2n1-c1sc3c(c1C(c1ccccc1Cl)=NC21CC1)C[C@H](C(=O)NC12CC(C1)C2)C3

>  <endpoint_unit>
nM

>  <numeric_readout>
1.3

$$$$
>  <compound>
CCCN(CCC)C(=O)[C@@H]1Cc2sc3c(c2C1)C(c1ccccc1Cl)=NC1(CC1)c1nnc(C)n1-3

>  <endpoint_unit>
nM

>  <numeric_readout>
0.9

$$$$
>  <compound>
Cc1nnc2n1-c1sc3c(c1C(c1ccccc1Cl)=NC21CC1)C[C@H](C(=O)N(C)[C@H]1CCN(S(C)(=O)=O)C1)C3

>  <endpoint_unit>
nM

>  <numeric_readout>
24

$$$$
>  <compound>
CO[C@@H]1CC[C@H]1NC(=O)[C@@H]1Cc2sc3c(c2C1)C(c1ccccc1Cl)=NC1(CC1)c1nnc(C)n1-3

>  <endpoint_unit>
nM

>  <numeric_readout>
7.1

$$$$
>  <compound>
Cc1nnc2n1-c1sc3c(c1C(c1ccccc1Cl)=NC21CC1)C[C@H](C(=O)NC1(C)CCC1)C3

>  <endpoint_unit>
nM

>  <numeric_readout>
1.6

$$$$
>  <compound>
Cc1nnc2n1-c1sc3c(c1C(c1ccccc1Cl)=NC21CC1)C[C@H](C(=O)N(C)[C@H]1CC[C@H](O)CC1)C3

>  <endpoint_unit>
nM

>  <numeric_readout>
22

$$$$
>  <compound>
Cc1nnc2n1-c1sc3c(c1C(c1ccccc1Cl)=NC21CC1)C[C@H](C(=O)NC1(c2cccc(F)c2)CC1)C3

>  <endpoint_unit>
nM

>  <numeric_readout>
1.1

$$$$
>  <compound>
Cc1nnc2n1-c1sc3c(c1C(c1ccccc1Cl)=NC21CC1)C[C@H](C(=O)N[C@@H]1CCC(F)(F)C1)C3

>  <endpoint_unit>
nM

>  <numeric_readout>
2.4

$$$$
>  <compound>
Cc1nnc2n1-c1sc3c(c1C(c1ccccc1Cl)=NC21CC1)C[C@H](C(=O)N(C)[C@H]1c2ccccc2CC[C@@H]1O)C3

>  <endpoint_unit>
nM

>  <numeric_readout>
4

$$$$
>  <compound>
Cc1nnc2n1-c1sc3c(c1C(c1ccccc1Cl)=NC21CC1)C[C@H](C(=O)N[C@H]1COC[C@H]1c1ccccc1)C3

>  <endpoint_unit>
nM

>  <numeric_readout>
3.1

$$$$
>  <compound>
Cc1nnc2n1-c1sc3c(c1C(c1ccccc1Cl)=NC21CC1)C[C@H](C(=O)N[C@H]1CC[C@@H](C(F)(F)F)CC1)C3

>  <endpoint_unit>
nM

>  <numeric_readout>
1.8

$$$$
>  <compound>
Cc1nnc2n1-c1sc3c(c1C(c1cc(Cl)ccc1Cl)=NC21CC1)C[C@H](C(=O)N1CCOCC1)C3

>  <endpoint_unit>
nM

>  <numeric_readout>
17

$$$$
>  <compound>
Cc1nnc2n1-c1sc3c(c1C(c1ccccc1Cl)=NC21CC1)C[C@H](C(=O)N[C@@H]1C[C@H]1c1ccccc1)C3

>  <endpoint_unit>
nM

>  <numeric_readout>
1.3

$$$$
